B1: H2-Kb / E9 (parent)
chain 1: QQKVQQSPESLTVSEGAMASLNCTFSDRSSDNFRWYRQHSGKGLEVLVSIFSDGEKEEGSFTAHLNRASLHVFLHIREPQPSDSALYLCAVSRSSGSWQLIFGSGTQLTVMP
chain 2: NSGVVQSPRYIIKGKGERSILKCIPISGHLSVAWYQQTQGQELKFFIQHYDKMERDKGNLPSRFSVQQFDDYHSEMNMSALELEDSAVYFCASSRDSNNQAPLFGEGTRLSVL
chain 3: not shown
chain 4: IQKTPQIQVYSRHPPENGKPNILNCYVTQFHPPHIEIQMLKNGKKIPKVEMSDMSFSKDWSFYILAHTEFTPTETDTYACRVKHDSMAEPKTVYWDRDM
chain 5: SIINFEKL

variants of: B1; assay: % of reporter cells activated (NFAT-GFP), raw; conditions: with E9; scale: % of reporter cells activated; note: test concentration or dose not given here
The following variants are shown together with reported ratio to parent values.
quantity name: ratio to parent

In [3]: df
Out[3]:
         mutant  reported_value
 0  chain 5 E6I            2.63
 1  chain 5 E6Y            2.84
 2  chain 5 L8E            1.26
 3  chain 5 E6F            1.68
 4  chain 5 S1Q            1.16
 5  chain 5 E6L            1.35
 6  chain 5 F5A            1.68
 7  chain 5 E6R            2.34
 8  chain 5 L8P            1.35
 9  chain 5 S1L            2.01
10  chain 5 L8V           0.302
11  chain 5 I2C            2.31
12  chain 5 I3V            1.23
13  chain 5 S1P            1.23
14  chain 5 I3H            1.53
15  chain 5 F5Y            2.37
16  chain 5 N4V            2.04
17  chain 5 F5G            1.74
18  chain 5 E6H            1.47
19  chain 5 I3A            1.71
20  chain 5 F5L            1.98
21  chain 5 I2G            1.32
22  chain 5 L8W           0.778
23  chain 5 S1G             2.1
24  chain 5 S1W             1.2
25  chain 5 K7M            1.02
26  chain 5 N4D            1.11
27  chain 5 N4Y            1.15
28  chain 5 N4K             2.4
29  chain 5 K7A           0.686
30  chain 5 S1N            1.32
31  chain 5 F5M            1.74
32  chain 5 L8N           0.838
33  chain 5 I2D            2.31
34  chain 5 K7H            2.43
35  chain 5 I3Q            1.83
36  chain 5 I3D            1.41
37  chain 5 L8G            1.25
38  chain 5 I3L            2.07
39  chain 5 E6T             2.1
40  chain 5 I2R            1.06
41  chain 5 L8M           0.988
42  chain 5 K7N            1.95
43  chain 5 E6K            1.98
44  chain 5 F5R           0.671
45  chain 5 K7D            1.53
46  chain 5 I3M            1.17
47  chain 5 L8K            1.14
48  chain 5 F5I            1.02
49  chain 5 I3R            1.89
50  chain 5 N4L            2.31
51  chain 5 S1Y             1.2
52  chain 5 S1T            1.35
53  chain 5 S1A            3.05
54  chain 5 I2S            1.46
55  chain 5 E6Q            1.47
56  chain 5 I2H            1.71
57  chain 5 L8Y             1.2
58  chain 5 E6D            1.68
59  chain 5 I2L             1.5
60  chain 5 L8F            1.77
61  chain 5 I3T            1.68
